Biological target: Amine oxidase [flavin-containing] A (Homo sapiens, UniProt P21397)
Sequence (P21397 whole entry): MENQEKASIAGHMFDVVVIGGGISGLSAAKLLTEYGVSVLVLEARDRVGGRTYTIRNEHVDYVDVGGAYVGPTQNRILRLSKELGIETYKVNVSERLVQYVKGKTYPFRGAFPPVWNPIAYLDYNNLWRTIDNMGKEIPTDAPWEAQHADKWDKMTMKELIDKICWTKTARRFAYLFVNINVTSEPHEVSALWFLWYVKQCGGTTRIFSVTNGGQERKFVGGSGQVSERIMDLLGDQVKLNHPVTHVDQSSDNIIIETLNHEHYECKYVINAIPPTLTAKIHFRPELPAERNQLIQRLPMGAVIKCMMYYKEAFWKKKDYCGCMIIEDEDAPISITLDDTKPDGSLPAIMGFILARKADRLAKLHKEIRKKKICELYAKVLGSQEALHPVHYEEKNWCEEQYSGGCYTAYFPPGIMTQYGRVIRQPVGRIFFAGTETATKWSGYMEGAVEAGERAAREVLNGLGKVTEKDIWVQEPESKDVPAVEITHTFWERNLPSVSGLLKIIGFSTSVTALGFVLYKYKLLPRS
Assay: Inhibition of human MAO-A using kynuramine as substrate incubated for 10 mins by continuous spectrophotometric method
pIC50: −log10 of the molar value.
measurement label: pIC50

[Q] // fetch pIC50 given entry CC/C(C)=N/Oc1ccc(C(=O)/C=C/c2ccccc2)cc1
[A] < 5.00

---

Biological target: Amine oxidase [flavin-containing] B (Homo sapiens)
Sequence (P27338 whole entry): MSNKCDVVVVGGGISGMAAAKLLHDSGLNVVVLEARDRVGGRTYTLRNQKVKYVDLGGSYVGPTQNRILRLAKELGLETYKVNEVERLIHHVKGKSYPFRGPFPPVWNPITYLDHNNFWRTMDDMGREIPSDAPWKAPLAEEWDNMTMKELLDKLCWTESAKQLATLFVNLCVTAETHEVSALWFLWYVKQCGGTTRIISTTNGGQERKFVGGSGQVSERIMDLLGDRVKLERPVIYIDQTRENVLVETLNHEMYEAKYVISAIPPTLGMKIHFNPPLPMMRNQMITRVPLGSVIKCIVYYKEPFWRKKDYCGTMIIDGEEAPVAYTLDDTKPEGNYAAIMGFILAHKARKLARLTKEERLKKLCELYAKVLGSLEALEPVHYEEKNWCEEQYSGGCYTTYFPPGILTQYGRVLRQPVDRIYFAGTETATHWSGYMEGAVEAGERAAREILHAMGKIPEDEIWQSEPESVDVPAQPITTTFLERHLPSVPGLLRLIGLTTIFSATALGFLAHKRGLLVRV
Experiment: Inhibition of human MAO-B using kynuramine as substrate incubated for 20 mins by fluorescence based assay relative to control
Please provide measured IC50 for the entries that follow.
Use µM as the unit, but write only the number.

[Q] Determine from records and report IC50 for COc1ccc(C(=O)/C=C/c2ccc(O)cc2)c(O)c1CC=C(C)C
[A] 1.39

[Q] Note IC50 for the compound shown: CC(C)=CCc1cc(C(=O)/C=C/c2ccc(O)c(O)c2)c(O)cc1O [BROUSSOCHALCONE A]
[A] 7.02

[Q] Annotate the compound COc1cc(O)ccc1C(=O)/C=C/c1ccc(O)cc1 with its measured IC50.
[A] 0.38

[Q] Assign IC50 to the following record: CC(C)=CCC/C(C)=C/Cc1c(O)ccc(C(=O)/C=C/c2ccc(O)cc2)c1O [XANTHOANGELOL]
[A] 13.2

[Q] Provide one value: measured IC50 of COc1cc(O)c(C(=O)/C=C/c2ccccc2O)c(OC)c1
[A] 2.71
